experiment: Binding assay: competition with ConA-FITC on glucose-terminated magnetic beads; conditions: relative to ConA; 2.4 μM ConA-FITC, boronic acid 2.5 μM to 20 μM, PBS pH 7.2
For each record, write down the corresponding Sugar Binding Affinity Log(KaBA/KaConA).
Give only the figure.

Name the reported Sugar Binding Affinity Log(KaBA/KaConA) value associated with the compound CC(C)(C)Oc1ncc(B(O)O)c(OC(C)(C)C)n1
0.008

Name the reported Sugar Binding Affinity Log(KaBA/KaConA) value associated with the compound O=C(Cl)c1ccc(B2OB(c3ccc(C(=O)Cl)cc3)OB(c3ccc(C(=O)Cl)cc3)O2)cc1 [4-chlorocarbonylphenylboronic anhydride]
−2.08

Name the reported Sugar Binding Affinity Log(KaBA/KaConA) value associated with the compound OB(O)c1cccc(Cl)c1
−1.03

Name the reported Sugar Binding Affinity Log(KaBA/KaConA) value associated with the compound CN(C)c1cccc(B(O)O)c1
−0.14

Name the reported Sugar Binding Affinity Log(KaBA/KaConA) value associated with the compound OB(O)c1cccnc1Br
−2.9

Name the reported Sugar Binding Affinity Log(KaBA/KaConA) value associated with the compound NC(=O)c1ccc(B(O)O)cc1
−1.03

Name the reported Sugar Binding Affinity Log(KaBA/KaConA) value associated with the compound O=Cc1cc(B(O)O)cs1
−1.24

Name the reported Sugar Binding Affinity Log(KaBA/KaConA) value associated with the compound OB(O)c1ccc(Cl)cc1Cl
−0.93

Name the reported Sugar Binding Affinity Log(KaBA/KaConA) value associated with the compound OB(O)c1ccc(O)cc1 [4-hydroxyphenylboronic acid]
−1.08

Name the reported Sugar Binding Affinity Log(KaBA/KaConA) value associated with the compound OB(O)c1ccc(-c2ccccc2)s1
−2.3

Name the reported Sugar Binding Affinity Log(KaBA/KaConA) value associated with the compound CCCc1ccc(B(O)O)cc1
−0.009

----------
test system: HeLa cells; assay: MTT assay for cytotoxicity; details: 80 nM, 2 h
endpointName: MTT (% Cell Survival) 80 nM (%)
Give the number; % is assumed, so skip it.

Name the reported MTT (% Cell Survival) 80 nM value associated with the compound CC(C)(C)OC(=O)n1cccc1B(O)O
51.264

Name the reported MTT (% Cell Survival) 80 nM value associated with the compound N#Cc1ccc(B(O)O)s1
40.00

Name the reported MTT (% Cell Survival) 80 nM value associated with the compound OB(O)c1cnc(OCc2ccccc2)nc1OCc1ccccc1
89.04

Name the reported MTT (% Cell Survival) 80 nM value associated with the compound OB(O)c1cccs1
75.76

Name the reported MTT (% Cell Survival) 80 nM value associated with the compound OB(O)c1cccc(OCc2ccccc2)c1
71.94

Name the reported MTT (% Cell Survival) 80 nM value associated with the compound OB(O)c1cnn(Cc2ccccc2)c1
62.54

Name the reported MTT (% Cell Survival) 80 nM value associated with the compound NC(=O)c1cccc(B(O)O)c1
77.93

Name the reported MTT (% Cell Survival) 80 nM value associated with the compound OB(O)c1cccc2c1Sc1ccccc1S2
61.32

Name the reported MTT (% Cell Survival) 80 nM value associated with the compound C=C(B(O)O)c1ccccc1
67.23

Name the reported MTT (% Cell Survival) 80 nM value associated with the compound CC(C)OB(CBr)OC(C)C [diisopropyl(bromomethyl)boronate]
96.62

----------
tested on: HeLa cells; assay: MTT assay for cytotoxicity; conditions: 40 nM, 2 h
endpointName: MTT (% Cell Survival) 40 nM (%)
Give the number; % is assumed, so skip it.

Find MTT (% Cell Survival) 40 nM (HeLa cells) for the entry CC(C)(C)Oc1ncc(B(O)O)c(OC(C)(C)C)n1
100.46

Find MTT (% Cell Survival) 40 nM (HeLa cells) for the entry O=C(Cl)c1ccc(B2OB(c3ccc(C(=O)Cl)cc3)OB(c3ccc(C(=O)Cl)cc3)O2)cc1 [4-chlorocarbonylphenylboronic anhydride]
114.54

Find MTT (% Cell Survival) 40 nM (HeLa cells) for the entry O=[N+]([O-])/C=C/c1cccc(B(O)O)c1 [3-[(E)-2-nitrovinyl]phenylboronic acid]
116.00

Find MTT (% Cell Survival) 40 nM (HeLa cells) for the entry OB(O)c1cncc(Br)c1
134.748

----------
system: HeLa cells; assay: MTT assay for cytotoxicity; settings: 80 nM, 2 h
Threshold-based label: MTT (% Cell Survival) 80 nM under 60% gives criterion met, MTT (% Cell Survival) 80 nM not under 60% gives criterion not met.

Please let me know if COc1ccc(F)cc1B(O)O shows MTT (% Cell Survival) 80 nM below 60%.
criterion not met

Please let me know if N#Cc1ccccc1B(O)O shows MTT (% Cell Survival) 80 nM below 60%.
criterion not met

Please let me know if COc1ccc(C#N)cc1B(O)O shows MTT (% Cell Survival) 80 nM below 60%.
criterion met

Please let me know if CC(C)(C)Oc1ncc(B(O)O)c(OC(C)(C)C)n1 shows MTT (% Cell Survival) 80 nM below 60%.
criterion not met

Please let me know if O=Cc1cc(B(O)O)cs1 shows MTT (% Cell Survival) 80 nM below 60%.
criterion not met

Please let me know if OB(O)c1cccnc1Br shows MTT (% Cell Survival) 80 nM below 60%.
criterion not met

Please let me know if N#Cc1ccc(B(O)O)cc1 shows MTT (% Cell Survival) 80 nM below 60%.
criterion not met

Please let me know if O=C(Cl)c1ccc(B2OB(c3ccc(C(=O)Cl)cc3)OB(c3ccc(C(=O)Cl)cc3)O2)cc1 [4-chlorocarbonylphenylboronic anhydride] shows MTT (% Cell Survival) 80 nM below 60%.
criterion not met

Please let me know if OB(O)c1cc2ccccc2nc1Cl shows MTT (% Cell Survival) 80 nM below 60%.
criterion met

Please let me know if COc1cccc(OC)c1B(O)O shows MTT (% Cell Survival) 80 nM below 60%.
criterion not met

Please let me know if OB(O)c1ccc(Br)nc1 shows MTT (% Cell Survival) 80 nM below 60%.
criterion not met

Please let me know if OB(O)c1ccc(O)cc1 [4-hydroxyphenylboronic acid] shows MTT (% Cell Survival) 80 nM below 60%.
criterion not met

Please let me know if O=c1[nH]cc(B(O)O)c(=O)[nH]1 shows MTT (% Cell Survival) 80 nM below 60%.
criterion met

----------
For each record, write down the corresponding MTT (% Cell Survival) 160 nM.
test system: HeLa cells; experiment: MTT assay for cytotoxicity; details: 160 nM, 2 h
Give the number; % is assumed, so skip it.

Name the reported MTT (% Cell Survival) 160 nM value associated with the compound O=[N+]([O-])/C=C/c1cccc(B(O)O)c1 [3-[(E)-2-nitrovinyl]phenylboronic acid]
73.93

Name the reported MTT (% Cell Survival) 160 nM value associated with the compound COc1ccc(F)cc1B(O)O [5-fluoro-2-methoxyphenylboronic acid]
54.92

Name the reported MTT (% Cell Survival) 160 nM value associated with the compound COc1ccc(C#N)cc1B(O)O [5-cyano-2-methoxyphenylboronic acid]
62.08

Name the reported MTT (% Cell Survival) 160 nM value associated with the compound OB(O)c1ccccc1O [2-hydroxyphenylboronic acid]
53.64

Name the reported MTT (% Cell Survival) 160 nM value associated with the compound OB(O)c1cccc2c1Sc1ccccc1S2 [thianthrene-1-boronic acid]
81.10

----------
For each record, write down the corresponding Inflammation (PCC) 80 nM.
system: NF-κB; test: NF-κB assay for inflammation (nuclear translocation of NF-κB, immunocytochemistry, PCC); conditions: HeLa cells, 80 nM, 2 h; PCC between nuclear and cytoplasmic fraction of NF-κB
Give only the figure.

Name the reported Inflammation (PCC) 80 nM value associated with the compound CC(C)[Si](C(C)C)(C(C)C)n1ccc(B(O)O)c1
0.00445

Name the reported Inflammation (PCC) 80 nM value associated with the compound O=C(Cl)c1ccc(B2OB(c3ccc(C(=O)Cl)cc3)OB(c3ccc(C(=O)Cl)cc3)O2)cc1 [4-chlorocarbonylphenylboronic anhydride]
−0.0012

Name the reported Inflammation (PCC) 80 nM value associated with the compound O=c1[nH]cc(B(O)O)c(=O)[nH]1
0.00516

Name the reported Inflammation (PCC) 80 nM value associated with the compound Cc1noc(C)c1B(O)O
0.0057

Name the reported Inflammation (PCC) 80 nM value associated with the compound COc1cccc(OC)c1B(O)O
0.03888

Name the reported Inflammation (PCC) 80 nM value associated with the compound N#Cc1ccccc1B(O)O
0.0475

Name the reported Inflammation (PCC) 80 nM value associated with the compound O=Cc1cc(B(O)O)cs1
0.00225

Name the reported Inflammation (PCC) 80 nM value associated with the compound OB(O)c1cccnc1Br
−0.0396

Name the reported Inflammation (PCC) 80 nM value associated with the compound OB(O)c1cccc2c1Sc1ccccc1S2
0.0268

----------
For each record, write down the corresponding Inflammation (PCC) 160 nM.
system: NF-κB; assay: NF-κB assay for inflammation (nuclear translocation of NF-κB, immunocytochemistry, PCC); details: HeLa cells, 160 nM, 2 h; PCC between nuclear and cytoplasmic fraction of NF-κB
Give only the figure.

Find Inflammation (PCC) 160 nM (NF-κB) for the entry CCCc1ccc(B(O)O)cc1 [4-propylphenylboronic acid]
0.1922

Find Inflammation (PCC) 160 nM (NF-κB) for the entry OB(O)c1cnc(OCc2ccccc2)nc1OCc1ccccc1
0.04709

Find Inflammation (PCC) 160 nM (NF-κB) for the entry CC(=O)c1ccc(B(O)O)s1 [5-acetyl-2-thiopheneboronic acid]
0.2343

Find Inflammation (PCC) 160 nM (NF-κB) for the entry N#Cc1ccc(B(O)O)cc1 [4-cyanophenylboronic acid]
0.4879

Find Inflammation (PCC) 160 nM (NF-κB) for the entry COc1ccc(F)cc1B(O)O [5-fluoro-2-methoxyphenylboronic acid]
0.2936

Find Inflammation (PCC) 160 nM (NF-κB) for the entry CC(C)(C)OC(=O)n1cccc1B(O)O [N-boc-2-pyrroleboronic acid]
0.1837

Find Inflammation (PCC) 160 nM (NF-κB) for the entry C=C(B(O)O)c1ccccc1 [1-phenylvinylbornic acid]
0

Find Inflammation (PCC) 160 nM (NF-κB) for the entry COc1ccc(C#N)cc1B(O)O [5-cyano-2-methoxyphenylboronic acid]
−0.08086

Find Inflammation (PCC) 160 nM (NF-κB) for the entry COc1cccc(OC)c1B(O)O [2,6-dimethoxyphenylboronic acid]
0.2607

Find Inflammation (PCC) 160 nM (NF-κB) for the entry OB(O)c1ccccc1O [2-hydroxyphenylboronic acid]
0.08884

Data credit: patent US9278068B2
